Values from ChEMBL document CHEMBL3639062

study target: Proteinase-activated receptor 1 (Homo sapiens, UniProt P25116)
Sequence (P25116 whole entry): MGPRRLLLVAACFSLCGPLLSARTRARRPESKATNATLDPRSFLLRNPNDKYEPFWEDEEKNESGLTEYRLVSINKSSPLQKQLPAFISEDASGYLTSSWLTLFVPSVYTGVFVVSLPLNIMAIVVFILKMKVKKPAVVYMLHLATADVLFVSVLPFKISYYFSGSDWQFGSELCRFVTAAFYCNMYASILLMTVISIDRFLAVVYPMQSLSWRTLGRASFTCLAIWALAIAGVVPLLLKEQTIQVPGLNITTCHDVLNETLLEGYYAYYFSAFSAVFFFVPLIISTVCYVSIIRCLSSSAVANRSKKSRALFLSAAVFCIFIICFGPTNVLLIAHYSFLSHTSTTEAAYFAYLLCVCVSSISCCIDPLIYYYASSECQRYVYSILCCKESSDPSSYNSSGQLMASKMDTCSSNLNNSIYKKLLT
run description: Binding Assay: The synthesized substances were examined in a PAR1 binding test. This tested whether the substances can inhibit the binding of a radioactively labeled PAR1 agonist known from the literature at the PAR1 receptor (Ho-Sam Ahn, Mol Pharm, 51:350-356, 1997). The human PAR1 receptor was expressed transiently in High Five insect cells. From these cells, after 48 hours, a membrane preparation was produced by standard methods, aliquoted into 10 mM Tris-HCl; 0.3 mM EDTA; 1 mM EGTA; 250 mM sucrose pH 7.5, and stored at -80 C.The substances were preincubated with the membrane at room temperature for 15 minutes, then the radioligand (ALA-(para-F-Phe)-Arg-ChA-homoArg-(3,4-3H-Tyr)-NH2; approx. 40 Ci/mMol) was added. The end concentration of the radioligand in the test buffer (50 mM Tris-HCl; 10 mM MgCl2; 1 mM EGTA; 0.1% BSA; 2% DMSO) was 20 nM, that of the membrane 1 mg/ml. After an incubation time of 60 minutes, 25 uL of the mixture were transferred to a 96-well MultiScreenHTS FB.
measure: IC50 (nM)
# unit: nM | format: bare number

What IC50 appears in the records for this compound with Proteinase-activated receptor 1 (Homo sapiens, UniProt P25116)? "CCC(CC)Oc1nn2c(=N)n(CC(=O)c3cc(OC)cc(C(C)(C)C)c3)nc2cc1C"
951
